- Test system: Rattus norvegicus
- measurement.conditions: developmental; duration: 10 days; oral; gavage; Sprague-Dawley
property: NOAEL

Reference set, count: 2
compound="c1ccc(Oc2ccccc2)cc1 [Diphenyl oxide]" tested_on="Rattus norvegicus" result="≥ 500 mg/kg-day"
compound="CC(C)(c1ccc(Oc2ccc3c(c2)C(=O)OC3=O)cc1)c1ccc(Oc2ccc3c(c2)C(=O)OC3=O)cc1 [4,4'-(4,4'-Isopropylidenediphenoxy)bisphthalic dianhydride]" tested_on="Rattus norvegicus" result="> 1000 mg/kg-day"

Hey, can you go through the list below and give me NOAEL for every item?
1. C1=CC2C3C=CC(C3)C2C1 (centres undefined) [Dicyclopentadiene]
2. CN1C(=O)c2ccc(Oc3ccc(C(C)(C)c4ccc(Oc5ccc6c(c5)C(=O)N(C)C6=O)cc4)cc3)cc2C1=O

### Response
1: 50 mg/kg-day; 2: > 1000 mg/kg-day

----------
- Test system: Rattus norvegicus
- measurement.conditions: acute; oral; gavage; Sprague-Dawley
property: LD50 (mg/kg)
Give bare numbers, in mg/kg.

Below, each entry is followed by its recorded LD50 result.
compound="O=S1(=O)CC=CC1 [2,5-Dihydrothiophene 1,1-dioxide]" quantitative_readout=2880
compound=Nc1ccc([N+](=O)[O-])cc1 quantitative_readout=1400
compound="CN1C(=O)c2ccc([N+](=O)[O-])cc2C1=O [N-Methyl-4-nitrophthalimide]" quantitative_readout=2800
compound=c1ccc(-c2cccc(-c3ccccc3)c2)cc1 quantitative_readout=2400
compound=Cc1cc(O)c(C(C)(C)C)cc1Sc1cc(C(C)(C)C)c(O)cc1C quantitative_readout=4150

Okay, next one:
### Prompt I have this compound here, CCc1ccc(C)cc1 , and I need its recorded LD50.
### Response 4850

----------
- System: Rattus norvegicus
- measurement.conditions: acute; inhalation; Sprague-Dawley
property: LC50

Example entries and their recorded answers appear below.
compound="C=CCCC#N [4-Pentenenitrile]" tested_on="Rattus norvegicus" property=LC50 result="8460 mg/m3"
compound="CCc1ccc(C)cc1 [4-Ethyltoluene]" tested_on="Rattus norvegicus" property=LC50 result="> 19200 mg/m3"
compound="C=CC [1-Propene]" tested_on="Rattus norvegicus" property=LC50 result="> 112000 mg/m3"
compound="Cc1ccccn1 [2-Methylpyridine]" tested_on="Rattus norvegicus" property=LC50 result="< 13200 mg/m3"

Report LC50 for every entry below.
1. COC(=O)CC(C)(C)C(Cl)CC(Cl)(Cl)Cl (configuration not stated)
2. Cc1cccc2[nH]c([S-])nc12.Cc1cccc2[nH]c([S-])nc12.[Zn+2]
3. COCCl [Chloromethyl methyl ether]

### Response
1. > 66.6 mg/m3
2. > 2.03 µg/mL
3. 181 mg/m3

----------
Kindly supply the reported log10 NOAEL values for the records listed here.
- System: Rattus norvegicus
- measurement.conditions: repeat dose other; oral
The figures below represent log10 of NOAEL, where NOAEL is stated in mg/kg-day.

// below: answered molecules
molecule=Clc1cc2c(cc1Cl)Oc1cc(Cl)c(Cl)cc1O2 property="log10 NOAEL" quantitative_readout=-6.00
molecule="[CH3][Hg][Cl] [Methylmercuric(II) chloride]" property="log10 NOAEL" quantitative_readout=-1.49
molecule="O=S1OCC2C(CO1)C1(Cl)C(Cl)=C(Cl)C2(Cl)C1(Cl)Cl (stereo not drawn) [Endosulfan]" property="log10 NOAEL" quantitative_readout=-0.82
molecule="[Ba+2].[Cl-].[Cl-] [Barium chloride]" property="log10 NOAEL" quantitative_readout=0.71
molecule=Clc1cc2c(oc3cc(Cl)c(Cl)c(Cl)c32)c(Cl)c1Cl property="log10 NOAEL" quantitative_readout=-3.80

Required: log10 NOAEL, one value per molecule below.
1. [Cr+6]
2. ClC1=C(Cl)[C@]2(Cl)[C@@H]3[C@@H]4C[C@@H]([C@H]5O[C@@H]45)[C@@H]3[C@@]1(Cl)C2(Cl)Cl
3. CC(C)=O

### Response
[0.52, -1.70, 1.00]
